Cited source for all entries: patent US20100260805A1

- ASSAYED SYSTEM: T1, HLA-DRB1*0701 (human)
- T1 construct: human MHC class II allotype
- MEASUREMENT PROTOCOL: competitive MHC class II binding assay; competitor: control peptide Influenza haemagglutinin 307-319;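 further: each peptide was tested for its capacity to displace a known reference binder from human MHC class II allotypes, and its IC50 is expressed relative to that of the reference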
Given measured ratio of IC50 to that of the control peptide, output yes (1) if it is greater than or equal to 20 ratio and no (0) if not.

Query: hey, is ratio of IC50 to that of the control peptide for this one >= 20 ratio? REALAQTHSAIAVI [HDM09A]
Result: no (0)

Query: hey, is ratio of IC50 to that of the control peptide for this one >= 20 ratio? DGVLACAIATHAKIR [HDM26A]
Result: no (0)

Query: hey, is ratio of IC50 to that of the control peptide for this one >= 20 ratio? VSMEYDLAYKLGDLH [HDM40A]
Result: no (0)

Query: hey, is ratio of IC50 to that of the control peptide for this one >= 20 ratio? LDMRNIQVRGLKQ [HDM33]
Result: yes (1)

Query: hey, is ratio of IC50 to that of the control peptide for this one >= 20 ratio? DKFERHIGIIDLK [HDM30]
Result: no (0)
